Would you kindly list koff for each of these binders?
Target: T1, human serum albumin (human, UniProt P02768 25-609)
T1 construct: Antigen in the SPR assay
Assay: SPR
Numbers only, in s⁻¹.

binder	koff / s⁻¹
VHH antibody in which glycine in position 36, glycine in position 78, and serine in position 116 of SEQ ID NO: 1 were substituted (SEQ ID NO: 10) (VHH, Text says asparagine at IMGT 36; also called G36D/G78A/S116R mutant) VHH: QVQLVESGGGLVQAGDSLRLSCAASGRTFSDYAMGWFRQAPGKEREFVARINWSGTLTYYADSVKGRFTASRDNAKNTVYLQMNSLKPEDTAVYYCAQRGDSGSNYDPSGYRYWGQGTQVTVSS	0.411

For the 2 binders below, give their koff values.
1. VHH antibody of SEQ ID NO: 1 (VHH, Isolated from a phage library; also called WT VHH) VHH: QVQLVESGGGLVQAGDSLRLSCAASGRTFSGYAMGWFRQAPGKEREFVARINWSGTLTYYADSVKGRFTGSRDNAKNTVYLQMNSLKPEDTAVYYCAQRGDSGSNYDPSGYSYWGQGTQVTVSS
2. VHH antibody in which glycine in position 36, arginine in position 50, glycine in position 78, and serine in position 116 of SEQ ID NO: 1 were substituted (SEQ … (VHH, Text says asparagine at IMGT 36; also called G36D/R50L/G78A/S116R mutant) VHH: QVQLVESGGGLVQAGDSLRLSCAASGRTFSDYAMGWFRQAPGKELEFVARINWSGTLTYYADSVKGRFTASRDNAKNTVYLQMNSLKPEDTAVYYCAQRGDSGSNYDPSGYRYWGQGTQVTVSS

0.371
0.355

For the 4 binders below, give their koff values.
1. VHH antibody in which glycine in position 78 of SEQ ID NO: 1 was substituted with alanine (SEQ ID NO: 5) (VHH, Expressed in E. coli; also called G78A mutant) VHH: QVQLVESGGGLVQAGDSLRLSCAASGRTFSGYAMGWFRQAPGKEREFVARINWSGTLTYYADSVKGRFTASRDNAKNTVYLQMNSLKPEDTAVYYCAQRGDSGSNYDPSGYSYWGQGTQVTVSS
2. VHH antibody in which serine in position 116 of SEQ ID NO: 1 was substituted with arginine (SEQ ID NO: 6) (VHH, Expressed in E. coli; also called S116R mutant) VHH: QVQLVESGGGLVQAGDSLRLSCAASGRTFSGYAMGWFRQAPGKEREFVARINWSGTLTYYADSVKGRFTGSRDNAKNTVYLQMNSLKPEDTAVYYCAQRGDSGSNYDPSGYRYWGQGTQVTVSS
3. VHH antibody in which arginine in position 50 of SEQ ID NO: 1 was substituted (SEQ ID NO: 4) (VHH, Text says asparagine at IMGT 50; Expressed in E. coli; also called R50L mutant) VHH: QVQLVESGGGLVQAGDSLRLSCAASGRTFSGYAMGWFRQAPGKELEFVARINWSGTLTYYADSVKGRFTGSRDNAKNTVYLQMNSLKPEDTAVYYCAQRGDSGSNYDPSGYSYWGQGTQVTVSS
4. VHH antibody in which glycine in position 36, arginine in position 50, and serine in position 116 of SEQ ID NO: 1 were substituted (SEQ ID NO: 9) (VHH, Text says asparagine at IMGT 36; also called G36D/R50L/S116R mutant) VHH: QVQLVESGGGLVQAGDSLRLSCAASGRTFSDYAMGWFRQAPGKELEFVARINWSGTLTYYADSVKGRFTGSRDNAKNTVYLQMNSLKPEDTAVYYCAQRGDSGSNYDPSGYRYWGQGTQVTVSS

1. 0.806
2. 0.591
3. 0.303
4. 0.0879

For the 2 binders below, give their koff values.
1. VHH antibody in which glycine in position 36 and serine in position 116 of SEQ ID NO: 1 were substituted (SEQ ID NO: 7) (VHH, Text says asparagine at IMGT 36; also called G36D/S116R mutant) VHH: QVQLVESGGGLVQAGDSLRLSCAASGRTFSDYAMGWFRQAPGKEREFVARINWSGTLTYYADSVKGRFTGSRDNAKNTVYLQMNSLKPEDTAVYYCAQRGDSGSNYDPSGYRYWGQGTQVTVSS
2. VHH antibody in which glycine in position 36 of SEQ ID NO: 1 was substituted (SEQ ID NO: 3) (VHH, Text says asparagine at IMGT 36; Expressed in E. coli; also called G36D mutant) VHH: QVQLVESGGGLVQAGDSLRLSCAASGRTFSDYAMGWFRQAPGKEREFVARINWSGTLTYYADSVKGRFTGSRDNAKNTVYLQMNSLKPEDTAVYYCAQRGDSGSNYDPSGYSYWGQGTQVTVSS

0.0643
0.125
